These measurements were taken from paper PMC12319226.

# test-target: T1, fHbp m002415 (Neisseria meningitidis, designed fHbp …, chimera)
# T1 chain: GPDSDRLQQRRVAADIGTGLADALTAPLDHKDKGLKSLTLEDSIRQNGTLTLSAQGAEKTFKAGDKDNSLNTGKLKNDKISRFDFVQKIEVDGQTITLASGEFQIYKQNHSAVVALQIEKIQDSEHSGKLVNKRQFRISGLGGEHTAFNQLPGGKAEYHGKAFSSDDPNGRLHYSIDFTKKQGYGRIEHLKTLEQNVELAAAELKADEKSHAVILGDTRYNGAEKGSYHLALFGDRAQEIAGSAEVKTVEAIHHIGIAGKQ
# test-details: BLI
# test-settings: both partners purified
recorded-endpoint: Kd (nM)
A number alone suffices; assume nM.

Write down Kd measured for item chimeric antibody h12C1 (antibody, V domains shown, also called humanized 12C1; source: Expi293, purified (MabSelect SuRe, SEC); copies: 2 + 2) VH: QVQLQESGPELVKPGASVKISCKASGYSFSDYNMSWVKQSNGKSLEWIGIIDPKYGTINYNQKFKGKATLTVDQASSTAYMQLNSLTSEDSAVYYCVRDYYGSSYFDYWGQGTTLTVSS VL: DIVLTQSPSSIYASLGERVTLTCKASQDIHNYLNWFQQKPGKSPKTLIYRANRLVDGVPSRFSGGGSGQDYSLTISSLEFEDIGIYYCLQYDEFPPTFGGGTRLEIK
66.7
